- SYSTEM: Beta-2 adrenergic receptor (Homo sapiens, UniProt P07550)
- Sequence (P07550 whole entry): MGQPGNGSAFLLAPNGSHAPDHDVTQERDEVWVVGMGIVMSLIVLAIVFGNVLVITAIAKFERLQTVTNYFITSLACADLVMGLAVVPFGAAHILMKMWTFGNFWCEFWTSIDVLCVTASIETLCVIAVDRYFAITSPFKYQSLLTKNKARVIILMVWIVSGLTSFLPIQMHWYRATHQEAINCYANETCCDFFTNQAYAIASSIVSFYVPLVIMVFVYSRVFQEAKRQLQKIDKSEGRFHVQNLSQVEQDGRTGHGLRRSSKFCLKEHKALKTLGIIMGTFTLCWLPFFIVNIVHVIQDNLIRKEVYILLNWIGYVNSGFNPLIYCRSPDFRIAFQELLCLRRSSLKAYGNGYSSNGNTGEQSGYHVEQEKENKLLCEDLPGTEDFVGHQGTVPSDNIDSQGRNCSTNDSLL
- ASSAY_PROCEDURE: Agonist activity at Adrenergic beta2 receptor (unknown origin)
ASSAY_ENDPOINT: pEC50
The read-out pEC50 is expressed as -log10 of concentration in moles per litre.

Query (molecule): `C[C@@H]1C[C@H]2[C@@H]3CCC4=CC(=O)C=C[C@]4(C)[C@@]3(F)[C@@H](O)C[C@]2(C)[C@@]1(O)C(=O)CO` ; field requested: pEC50
8.66

* * *

- SYSTEM: Nuclear factor NF-kappa-B complex (Homo sapiens, UniProt P19838+Q00653+Q04206)
- Sequence (P19838 1-433 limits assumed): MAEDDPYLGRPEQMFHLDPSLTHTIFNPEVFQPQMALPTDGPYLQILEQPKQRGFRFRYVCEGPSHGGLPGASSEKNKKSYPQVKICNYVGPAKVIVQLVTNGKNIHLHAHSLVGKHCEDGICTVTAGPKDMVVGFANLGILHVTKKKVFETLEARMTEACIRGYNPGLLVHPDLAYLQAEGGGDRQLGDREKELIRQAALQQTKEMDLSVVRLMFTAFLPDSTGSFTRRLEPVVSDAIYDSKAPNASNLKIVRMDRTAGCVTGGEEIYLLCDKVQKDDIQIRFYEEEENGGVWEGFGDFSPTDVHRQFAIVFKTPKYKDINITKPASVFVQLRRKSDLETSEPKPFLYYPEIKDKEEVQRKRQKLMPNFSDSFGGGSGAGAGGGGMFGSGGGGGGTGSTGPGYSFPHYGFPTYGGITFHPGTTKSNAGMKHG
- Sequence (Q00653 1-454 limits assumed): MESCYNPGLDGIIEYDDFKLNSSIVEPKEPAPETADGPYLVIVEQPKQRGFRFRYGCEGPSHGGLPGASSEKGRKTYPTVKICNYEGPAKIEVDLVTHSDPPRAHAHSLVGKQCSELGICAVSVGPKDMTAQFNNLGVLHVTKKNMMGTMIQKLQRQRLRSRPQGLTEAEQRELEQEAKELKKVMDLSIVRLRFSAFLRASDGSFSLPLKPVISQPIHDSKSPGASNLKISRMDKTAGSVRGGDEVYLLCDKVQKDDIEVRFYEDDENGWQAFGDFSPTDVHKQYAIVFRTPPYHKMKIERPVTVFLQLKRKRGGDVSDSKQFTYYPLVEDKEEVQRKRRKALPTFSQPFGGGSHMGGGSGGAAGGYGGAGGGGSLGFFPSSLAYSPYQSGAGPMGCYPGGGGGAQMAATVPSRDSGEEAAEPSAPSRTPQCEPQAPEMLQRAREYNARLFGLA
- Sequence (Q04206 whole entry): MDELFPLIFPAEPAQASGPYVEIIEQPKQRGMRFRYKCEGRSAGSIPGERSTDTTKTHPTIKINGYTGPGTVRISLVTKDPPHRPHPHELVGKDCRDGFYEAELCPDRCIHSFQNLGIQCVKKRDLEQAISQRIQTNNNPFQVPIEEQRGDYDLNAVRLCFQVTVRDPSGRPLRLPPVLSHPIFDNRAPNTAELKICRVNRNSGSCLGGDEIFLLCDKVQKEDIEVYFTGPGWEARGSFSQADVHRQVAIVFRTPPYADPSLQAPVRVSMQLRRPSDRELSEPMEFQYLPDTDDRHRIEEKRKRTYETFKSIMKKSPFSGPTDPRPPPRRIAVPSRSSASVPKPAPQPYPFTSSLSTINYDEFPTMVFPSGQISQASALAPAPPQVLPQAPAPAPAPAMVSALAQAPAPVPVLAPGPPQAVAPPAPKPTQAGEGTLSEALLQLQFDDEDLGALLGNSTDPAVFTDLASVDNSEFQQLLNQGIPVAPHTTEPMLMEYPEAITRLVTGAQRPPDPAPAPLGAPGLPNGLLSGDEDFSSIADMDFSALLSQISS
- ASSAY_PROCEDURE: Inhibition of NF-kappaB (unknown origin)
ASSAY_ENDPOINT: pIC50
The scale used: pIC50 is minus the common logarithm of the concentration in molar units.

Can you share its pIC50? I mean this molecule: C[C@@H]1C[C@H]2[C@@H]3CCC4=CC(=O)C=C[C@]4(C)[C@@]3(F)[C@@H](O)C[C@]2(C)[C@@]1(O)C(=O)CO [DEXAMETHASONE]
9.30

* * *

- ASSAY_PROCEDURE: Inhibition of 20s proteasome beta1 (unknown origin) mediated […] activity
- Set-up: species or system Homo sapiens
Counter-ions that a name gives are not always drawn.
ASSAY_ENDPOINT: IC50

Name the recorded IC50 for CC(C)C[C@H](NC(=O)CNC(=O)c1cc(Cl)ccc1Cl)B1OC(=O)C(CC(=O)O)(CC(=O)O)O1 [IXAZOMIB CITRATE] .
0.031 µM
